Measured on: Low molecular weight phosphotyrosine protein phosphatase (Homo sapiens)
Protocol summary: Competitive inhibition of human GST-tagged LMW-PTP-B expressed in Escherichia coli JM 109 cells using p-nitrophenyl phosphate as substrate after 15 mins by microplate reader analysis

[
  {
    "Smiles str": "Nc1nc(SCc2ccccn2)c2ncn([C@@H]3O[C@H](CO)[C@@H](O)[C@H]3O)c2n1",
    "Kis": "> 450 µM"
  },
  {
    "Smiles str": "CC(C)(C)c1ccc(OCC(=O)O)cc1",
    "Kis": "> 450 µM"
  },
  {
    "Smiles str": "Cc1cccc(N=C(S)Nc2cccc(C)n2)n1",
    "Kis": "> 450 µM"
  }
]
